Tested on: DDR2;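 further: KINOMEscan kinase panel screen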
Conditions: concentration: 1 μM, replicates: in singlicate; n = 1
Please assign class 0 whenever %Inh is at or above 10%, and class 1 whenever it is below.

[
  {
    "molecule": "O=C(Nc1n[nH]c2nc(-c3nccs3)c(Br)cc12)C1CC1",
    "label-class": "class 0"
  },
  {
    "molecule": "O=C(Nc1ccc2c(c1)OCO2)NC1CCN(c2ccnc(Nc3ccc(F)cc3)n2)C1 (stereo not drawn)",
    "label-class": "class 0"
  },
  {
    "molecule": "C[C@@H]1CCCCN1c1cc(-c2ccc3c(N)n[nH]c3c2)nc(N)n1",
    "label-class": "class 1"
  },
  {
    "molecule": "Cc1ccc(-c2cc(-c3c[nH]nc3-c3ccccn3)ccn2)cc1",
    "label-class": "class 0"
  },
  {
    "molecule": "Cl.NC(=O)c1cccc(Nc2nccc(Nc3ccc(Oc4cccc(Cl)c4)c(Cl)c3)n2)c1",
    "label-class": "class 1"
  },
  {
    "molecule": "Fc1cccc(COc2nnc(-c3ccc4c(c3)CCO4)o2)c1",
    "label-class": "class 0"
  },
  {
    "molecule": "Cc1cc(-c2ccc3c(c2)CC[C@@H](N[C@@H](C)c2ccccc2)C3)cnc1N.Cl",
    "label-class": "class 0"
  },
  {
    "molecule": "CC(C)(C)c1ccc(C(=O)Nc2cn3cc(Cl)ccc3n2)cc1",
    "label-class": "class 0"
  }
]

Determine whether this molecule shows %Inh lower than 10% (ties excluded): Nc1nc(-c2nccs2)c(-c2ccnc3ccccc23)s1
class 1
